# Tested on: Bacillus cereus
# assay-method-text: Minimum inhibitory concentration (MIC) preventing growth of Bacillus cereus
# Type: functional
observation-type: MIC (µg/mL)

[[record]]
line_notation = "CNC1CN(c2cc3c(cc2F)c(=O)c(C(=O)O)cn3C2CC2)C1"
measured_number = 0.12

[[record]]
line_notation = "NC1CN(c2cc3c(cc2F)c(=O)c(C(=O)O)cn3C2CC2)C1"
measured_number = 0.12

[[record]]
line_notation = "CC1(N)CN(c2cc3c(cc2F)c(=O)c(C(=O)O)cn3C2CC2)C1"
measured_number = 0.12

[[record]]
line_notation = "CN(C)C1(C)CN(c2cc3c(cc2F)c(=O)c(C(=O)O)cn3C2CC2)C1"
measured_number = 0.25

[[record]]
line_notation = "CC1(N)CN(c2cc3c(cc2F)c(=O)c(C(=O)O)cn3C(C)(C)C)C1"
measured_number = 0.25

[[record]]
line_notation = "CCNC1CN(c2c(F)cc3c(=O)c(C(=O)O)cn(C4CC4)c3c2F)C1"
measured_number = 0.25


* * *

# Test system: Escherichia coli
# assay-method-text: Efficacy on systemic infections after oral administration in mice was determined against Escherichia coli HM-42
# Assay type: functional
Assign classes using reported ED50 values and the ranges low (below 2 mg/kg), moderate (2 mg/kg to below 3 mg/kg), high (3 mg/kg or more), please.

[[record]]
line_notation = "CC1(N)CN(c2c(F)cc3c(=O)c(C(=O)O)cn(-c4ccc(F)cc4)c3c2Cl)C1"
class_assignment = "low"

[[record]]
line_notation = "NC1CN(c2c(F)cc3c(=O)c(C(=O)O)cn(C4CC4)c3c2F)C1"
class_assignment = "moderate"

[[record]]
line_notation = "CN(C)C1(C)CN(c2c(F)cc3c(=O)c(C(=O)O)cn(C4CC4)c3c2F)C1"
class_assignment = "low"

[[record]]
line_notation = "CN(C)C1(C)CN(c2cc3c(cc2F)c(=O)c(C(=O)O)cn3C2CC2)C1"
class_assignment = "moderate"

[[record]]
line_notation = "CNC1CN(c2c(F)cc3c(=O)c(C(=O)O)cn(C4CC4)c3c2F)C1"
class_assignment = "low"

[[record]]
line_notation = "CNC1(C)CN(c2cc3c(cc2F)c(=O)c(C(=O)O)cn3C2CC2)C1"
class_assignment = "low"

[[record]]
line_notation = "CCNC1CN(c2c(F)cc3c(=O)c(C(=O)O)cn(C4CC4)c3c2F)C1"
class_assignment = "low"

[[record]]
line_notation = "O=C(O)c1cn(C2CC2)c2c(F)c(N3CC(O)C3)c(F)cc2c1=O"
class_assignment = "high"

[[record]]
line_notation = "CCn1cc(C(=O)O)c(=O)c2cc(F)c(N3CC(C)(N)C3)c(F)c21"
class_assignment = "high"

[[record]]
line_notation = "CC1(N)CN(c2c(F)cc3c(=O)c(C(=O)O)cn(-c4ccc(F)cc4F)c3c2Cl)C1"
class_assignment = "low"

[[record]]
line_notation = "CC1(N)CN(c2cc3c(cc2F)c(=O)c(C(=O)O)cn3C2CC2)C1"
class_assignment = "moderate"

[[record]]
line_notation = "NC1CN(c2c(F)cc3c(=O)c(C(=O)O)cn(-c4ccc(F)cc4F)c3c2Cl)C1"
class_assignment = "moderate"

[[record]]
line_notation = "CC1(N)CN(c2c(F)c(N)c3c(=O)c(C(=O)O)cn(C4CC4)c3c2F)C1"
class_assignment = "high"

[[record]]
line_notation = "NC1CN(c2nc3c(cc2F)c(=O)c(C(=O)O)cn3-c2ccc(F)cc2F)C1"
class_assignment = "low"

[[record]]
line_notation = "CC1(N)CN(c2nc3c(cc2F)c(=O)c(C(=O)O)cn3C2CC2)C1"
class_assignment = "moderate"


* * *

# Test system: Escherichia coli
# assay-method-text: Minimum inhibitory concentration (MIC)preventing growth of Escherichia coli
# Type: functional
observation-type: log10 MIC (log10 of the value in mg/L)

[[record]]
molecule = "CC1(N)CN(c2nc3c(cc2F)c(=O)c(C(=O)O)cn3CCF)C1"
measured_number = -1.22

[[record]]
molecule = "CNC1CN(c2cc3c(cc2F)c(=O)c(C(=O)O)cn3C2CC2)C1"
measured_number = -1.52

[[record]]
molecule = "CNC1CN(c2cc3c(cc2F)c(=O)c2c(=O)[nH]sc2n3C2CC2)C1"
measured_number = -1.52

[[record]]
molecule = "Nc1c(F)c(N2CC(N)C2)c(F)c2c1c(=O)c(C(=O)O)cn2-c1ccc(F)cc1F"
measured_number = -1.82

[[record]]
molecule = "CC1(N)CN(c2cc3c(cc2F)c(=O)c(C(=O)O)cn3-c2ccc(F)cc2F)C1"
measured_number = -0.92

[[record]]
molecule = "CC1(N)CN(c2c(F)c(N)c3c(=O)c(C(=O)O)cn(-c4ccc(F)cc4F)c3c2F)C1"
measured_number = -0.92

[[record]]
molecule = "CN(C)C1CN(c2nc3c(cc2F)c(=O)c(C(=O)O)cn3C2CC2)C1"
measured_number = -1.22

[[record]]
molecule = "CC(=O)CN(C)C1(C)CN(c2cc3c(cc2F)c(=O)c(C(=O)O)cn3C2CC2)C1"
measured_number = -0.60

[[record]]
molecule = "CC1(N)CN(c2nc3c(cc2F)c(=O)c(C(=O)O)cn3C2CC2)C1"
measured_number = -1.52

[[record]]
molecule = "CC1(N)CN(c2c(F)cc3c(=O)c(C(=O)O)cn(-c4ccc(F)cc4F)c3c2Cl)C1"
measured_number = -1.52

[[record]]
molecule = "CC1(N)CN(c2c(F)cc3c(=O)c(C(=O)O)cn(C4CC4)c3c2F)C1"
measured_number = -1.22

[[record]]
molecule = "CCNCC1(C)CN(c2cc3c(cc2F)c(=O)c(C(=O)O)cn3C2CC2)C1"
measured_number = -0.92

[[record]]
molecule = "CCNCC1CN(c2cc3c(cc2F)c(=O)c(C(=O)O)cn3C2CC2)C1"
measured_number = -0.60

[[record]]
molecule = "CNC1(C)CN(c2nc3c(cc2F)c(=O)c(C(=O)O)cn3C(C)(C)C)C1"
measured_number = -1.22

[[record]]
molecule = "CCC1(O)CN(c2cc3c(cc2F)c(=O)c(C(=O)O)cn3C2CC2)C1"
measured_number = -0.92

[[record]]
molecule = "CCNC1CN(c2c(F)cc3c(=O)c(C(=O)O)cn(C4CC4)c3c2F)C1"
measured_number = -1.22

[[record]]
molecule = "CC1(N)CN(c2c(F)cc3c(=O)c(C(=O)O)cn(-c4ccc(F)cc4)c3c2Cl)C1"
measured_number = -1.52

[[record]]
molecule = "CC1(N)CN(c2c(F)cc3c(=O)c(C(=O)O)cn(-c4ccc(F)cc4F)c3c2F)C1"
measured_number = -0.60

[[record]]
molecule = "O=C(O)c1cn(C2CC2)c2c(F)c(N3CC(N4CCCC4)C3)c(F)cc2c1=O"
measured_number = -1.22

[[record]]
molecule = "CCNCC1CN(c2c(F)cc3c(=O)c(C(=O)O)cn(C4CC4)c3c2F)C1"
measured_number = -0.60

[[record]]
molecule = "CC1(N)CN(c2c(F)cc3c(=O)c(C(=O)O)cn(C4CC4)c3c2Cl)C1"
measured_number = -1.52

[[record]]
molecule = "O=C(O)c1cn(C2CC2)c2cc(N3CCC3)c(F)cc2c1=O"
measured_number = -0.92

[[record]]
molecule = "CC1COc2c(N3CC(C)(N)C3)c(F)cc3c(=O)c(C(=O)O)cn1c23 (stereo not drawn)"
measured_number = -0.92

[[record]]
molecule = "O=C(O)c1cn(C2CC2)c2cc(N3CC(O)C3)c(F)cc2c1=O"
measured_number = -0.92

[[record]]
molecule = "CNC1(C)CN(c2cc3c(cc2F)c(=O)c2c(=O)[nH]sc2n3C2CC2)C1"
measured_number = -1.52

[[record]]
molecule = "CC1(CN)CN(c2cc3c(cc2F)c(=O)c(C(=O)O)cn3C2CC2)C1"
measured_number = -0.92

[[record]]
molecule = "CC1(N)CN(c2cc3c(cc2F)c(=O)c2c(=O)[nH]sc2n3C2CC2)C1"
measured_number = -1.82

[[record]]
molecule = "CN(C)C1CN(c2c(F)cc3c(=O)c(C(=O)O)cn(C4CC4)c3c2F)C1"
measured_number = -1.22

[[record]]
molecule = "O=C(O)c1cn(C2CC2)c2c(F)c(N3CCC3)c(F)cc2c1=O"
measured_number = -0.60

[[record]]
molecule = "CC1(N)CN(c2cc3c(cc2F)c(=O)c(C(=O)O)cn3C(C)(C)C)C1"
measured_number = -0.92

[[record]]
molecule = "CNC1(C)CN(c2cc3c(cc2F)c(=O)c(C(=O)O)cn3C(C)(C)C)C1"
measured_number = -0.60

[[record]]
molecule = "NC1CN(c2nc3c(cc2F)c(=O)c(C(=O)O)cn3-c2ccc(F)cc2F)C1"
measured_number = -0.92

[[record]]
molecule = "CC1(N)CN(c2c(F)cc3c(=O)c(C(=O)O)cn(-c4ccc(F)cc4)c3c2F)C1"
measured_number = -0.60

